Attribute: Change in body weight (1-4 d, g/mouse)
# assay-overview: Change in body weight of L1210-bearing mice, oral administration
# Assay type: in vivo, BDF1 mice
# measurement-conditions: dose 10 mg/kg/day, days 1-4
Supply the numeric figure in g/mouse, leaving out any unit text.

CCCCCCCCCC(=O)OC[C@H]1O[C@@H](n2cc(F)c(=O)[nH]c2=O)C[C@@H]1OC(=O)CCCCCCCCC | -0.8

From here, focus on the item given below.
Exam item: What value of Change in body weight (1-4 d, g/mouse) has been recorded for this entry: `CCCCCCCCCCCCCC(=O)OC[C@H]1O[C@@H](n2cc(F)c(=O)[nH]c2=O)C[C@@H]1OC(=O)CCCCCCCCCCCCC`
Marked response: -0.8

###

Attribute: Change in body weight (1-4 d, g/mouse)
# assay-overview: Change in body weight of L1210-bearing mice, oral administration
# Type: in vivo, BDF1 mice
# measurement-conditions: dose 10 mg/kg/day, days 1-4

O=c1[nH]c(=O)n([C@H]2C[C@H](O)[C@@H](CO)O2)cc1F [5-fluoro-2'-deoxyuridine] | +0.6 g/mouse
CCCCCCCC(=O)OC[C@H]1O[C@@H](n2cc(F)c(=O)[nH]c2=O)C[C@@H]1OC(=O)CCCCCCC [reference compound] | +1.8 g/mouse

Exam item: What value of Change in body weight (1-4 d, g/mouse) has been recorded for this entry: `CCCCCCCCCCCC(=O)OC[C@H]1O[C@@H](n2cc(F)c(=O)[nH]c2=O)C[C@@H]1OC(=O)CCCCCCCCCCC`
Marked response: +1.0 g/mouse
